Assign koff to each entry below.
# study-system: T1, human common cytokine receptor γ-chain (IL-2Rγ) (human, UniProt P31785 23-262, limits assumed)
# T1 construct: Recombinant human IL-2Rγ protein, coated (ELISA) or amine-coupled to a CM5 chip (SPR); also called hu IL-2R; CD132
# T1 sequence: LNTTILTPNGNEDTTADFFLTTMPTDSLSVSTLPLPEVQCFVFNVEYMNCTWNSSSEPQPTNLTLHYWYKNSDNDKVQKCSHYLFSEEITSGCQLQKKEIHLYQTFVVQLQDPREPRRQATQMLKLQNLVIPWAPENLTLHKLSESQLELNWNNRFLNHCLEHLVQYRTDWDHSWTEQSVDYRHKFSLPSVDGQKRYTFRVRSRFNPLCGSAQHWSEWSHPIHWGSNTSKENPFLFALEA
# experiment: P.E. off-rate SPR
Give bare numbers, in s⁻¹.

Example entries and their recorded answers appear below.
binder="FJ1427_P035MP07F01 (VHH, tested as periplasmic extract; also called Clone nr) VHH: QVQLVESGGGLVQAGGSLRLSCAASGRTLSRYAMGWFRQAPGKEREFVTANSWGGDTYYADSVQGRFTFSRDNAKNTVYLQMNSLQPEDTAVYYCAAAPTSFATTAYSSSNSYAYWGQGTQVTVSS" unit_annotation=s⁻¹ numeric_result=0.00297
binder="FJ1427_P035MP07G04 (VHH, tested as periplasmic extract; also called Clone nr) VHH: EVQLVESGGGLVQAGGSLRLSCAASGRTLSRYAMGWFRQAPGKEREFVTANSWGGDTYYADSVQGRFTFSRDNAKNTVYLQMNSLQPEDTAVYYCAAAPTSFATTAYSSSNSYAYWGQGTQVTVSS" unit_annotation=s⁻¹ numeric_result=0.00281
binder="FJ1427_P035MP07D06 (VHH, tested as periplasmic extract; also called Clone nr; 620) VHH: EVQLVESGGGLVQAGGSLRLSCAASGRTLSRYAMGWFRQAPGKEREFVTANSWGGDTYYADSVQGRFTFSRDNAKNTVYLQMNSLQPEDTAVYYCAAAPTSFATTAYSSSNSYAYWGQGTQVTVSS" unit_annotation=s⁻¹ numeric_result=0.00288

Lab note: each binder below needs its koff filled in.
1. FJ1427_P035MP07C10 (VHH, tested as periplasmic extract; also called Clone nr; 651) VHH: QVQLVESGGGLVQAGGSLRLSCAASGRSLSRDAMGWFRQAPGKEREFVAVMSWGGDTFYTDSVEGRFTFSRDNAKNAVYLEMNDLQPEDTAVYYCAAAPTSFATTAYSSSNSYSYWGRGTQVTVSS
2. FJ1427_P035MP07F06 (VHH, tested as periplasmic extract; also called Clone nr) VHH: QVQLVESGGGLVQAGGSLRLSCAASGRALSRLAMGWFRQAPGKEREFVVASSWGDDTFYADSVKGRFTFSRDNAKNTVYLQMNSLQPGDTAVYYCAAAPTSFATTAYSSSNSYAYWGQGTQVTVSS
3. FJ1427_P035MP07B07 (VHH, tested as periplasmic extract; also called Clone nr; 626) VHH: QVQLVESGGGLVQAGGSLRLSCAASGRSLSRYAMGWFRQAPGKEREFVAAISWGGDSFYTDSVEGRFTFSRDNAKNAVYLEMNDLQPEDTAVYYCAAAPTSFPTTAYSSSNSYSYWGRGTQVTVSS
4. FJ1427_P035MP07H08 (VHH, tested as periplasmic extract; also called Clone nr; 640) VHH: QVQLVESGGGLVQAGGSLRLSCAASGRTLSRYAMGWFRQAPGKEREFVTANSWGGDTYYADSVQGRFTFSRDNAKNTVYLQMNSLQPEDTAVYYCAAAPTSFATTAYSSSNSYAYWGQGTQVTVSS
5. FJ1427_P035MP07D10 (VHH, tested as periplasmic extract; also called Clone nr) VHH: QVQLVESGGGLVQAGGSLRLSCAASGRTLSRYAMGWFRQAPGKEREFVAADSWGGDTYYDDSVEGRFTFSRDIAKNAVYLQMNSLQPEDTAVYYCAAAPTSFATTAYSSSNSYAYWGQGTQVTVSS

## Result
[0.00176, 0.00162, 0.00259, 0.00303, 0.003]

The origin of these recorded values is patent US20240409645A1.
